Each entry below lists one item and its recorded Swel (mean difference in rat paw volume between right and left paw) value.
- System: carrageenan-induced rat paw oedema
- experiment.description: carrageenan-induced rat paw oedema assay
- Format: in vivo, Sprague–Dawley rats
- settings: 2 h after carrageenan; dose equivalent to 70 mg kg-1 ibuprofen, DMSO
Could you respond with only the numeric value?

Worked examples follow.
## Input Which Swel (mean difference in rat paw volume between right and left paw) value is on record for Cc1cc(C)c2c(n1)sc1c(=O)n(N=Cc3ccccc3)nnc12 ?
## Output 0.223

## Input Which Swel (mean difference in rat paw volume between right and left paw) value is on record for CCOC(=O)c1sc2nc(C)cc(C)c2c1N ?
## Output 0.46

## Input Which Swel (mean difference in rat paw volume between right and left paw) value is on record for COc1ccc(C=NNC(=O)c2sc3nc(C)cc(C)c3c2N)cc1 ?
## Output 0.193

Continue with the compound presented below.
## Input Which Swel (mean difference in rat paw volume between right and left paw) value is on record for Cc1cc(C)c2c(N)c(C(=O)NN)sc2n1 ?
## Output 0.486
